Cited source for all entries: patent US20220281976A1

Biological target: T1, human CD33 Fc fusion protein (human, UniProt P20138 18-259)
T1 construct: also called hCD33-Fc; human CD33/Fc chimera (R&D Systems)
T1 sequence (P20138 18-259 limits assumed): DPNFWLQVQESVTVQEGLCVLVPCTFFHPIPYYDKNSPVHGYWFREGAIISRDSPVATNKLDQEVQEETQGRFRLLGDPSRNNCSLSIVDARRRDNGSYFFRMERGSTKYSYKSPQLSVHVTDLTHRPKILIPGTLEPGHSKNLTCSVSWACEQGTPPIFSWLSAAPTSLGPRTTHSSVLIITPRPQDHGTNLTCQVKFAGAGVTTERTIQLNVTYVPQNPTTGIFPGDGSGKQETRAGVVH
Experiment: RBC adhesion to plate-bound CD33-Fc; antibody 1.0 ug/ml;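 note: red blood cells adhering to plate-coated CD33-Fc after 1 h antibody pretreatment, then 1 h at room temperature, bound cells read as peroxidase activity after lysis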
# key: entry, value: Percent RBC Binding to CD33

# BINDER, Percent RBC Binding to CD33, %
data = [
    ("C-3 (antibody, V domains shown, human IgG1) VH: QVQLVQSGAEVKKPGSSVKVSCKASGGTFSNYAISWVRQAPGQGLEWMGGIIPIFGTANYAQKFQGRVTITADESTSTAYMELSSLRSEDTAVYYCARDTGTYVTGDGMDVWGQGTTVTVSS VL: EIVMTQSPATLSVSPGERATLSCRASQSVSSNLAWYQQKPGQAPRLLIYGASTRATGIPARFSGSGSGTEFTLTISSLQSEDFAVYYCQQYDVWPITFGGGTKVEIK", 9.8),
    ("C-27 (antibody, V domains shown, human IgG1) VH: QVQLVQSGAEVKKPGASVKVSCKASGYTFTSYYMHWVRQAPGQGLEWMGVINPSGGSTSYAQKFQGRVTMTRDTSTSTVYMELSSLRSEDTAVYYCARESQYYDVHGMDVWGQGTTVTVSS VL: DIQMTQSPSSLSASVGDRVTITCRASQSISSYLNWYQQKPGKAPKLLIYAASSLQSGVPSRFSGSGSGTDFTLTISSLQPEDFATYYCQQHYDIPLTFGGGTKVEIK", 12.6),
    ("C-12 (antibody, V domains shown, human IgG1) VH: EVQLLESGGGLVQPGGSLRLSCAASGFTFSNYAMSWVRQAPGKGLEWVSAISGSGGSTYYADSVKGRFTISRDNSKNTLYLQMNSLRAEDTAVYYCARDGSRYSYGLVAYGMDVWGQGTTVTVSS VL: EIVLTQSPGTLSLSPGERATLSCRASQSVSSSFLAWYQQKPGQAPRLLIYGASSRATGIPDRFSGSGSGTDFTLTISRLEPEDFAVYYCQQSQLRPTFGGGTKVEIK", 17.8),
    ("C-13 (antibody, V domains shown, human IgG1) VH: EVQLVESGGGLVQPGGSLRLSCAASGFTFSSYWMSWVRQAPGKGLEWVANIKSDGSEKYYVDSVKGRFTISRDNAKNSLYLQMNSLRAEDTAVYYCARGPSYLASGAFDLWGRGTLVTVSS VL: EIVLTQSPATLSLSPGERATLSCRASQSVSSYLAWYQQKPGQAPRLLIYDASNRATGIPARFSGSGSGTDFTLTISSLEPEDFAVYYCQQAYVVPPRTFGGGTKVEIK", 15.3),
    ("C-33 (antibody, V domains shown, human IgG1) VH: EVQLVESGGGLVQPGGSLRLSCAASGFTFSSYWMSWVRQAPGKGLEWVANIKSDGSEKYYVDSVKGRFTISRDNAKNSLYLQMNSLRAEDTAVYYCAREGRPRLGYAAFDIWGQGTMVTVSS VL: DIQMTQSPSSLSASVGDRVTITCRASQSISSYLNWYQQKPGKAPKLLIYAASSLQSGVPSRFSGSGSGTDFTLTISSLQPEDFATYYCQQQYDLPITFGGGTKVEIK", 6.32),
]
